The values you see were collected from patent US5846742A.

# test protocol: Viability of PHA-stimulated T cells, 924
# Assay type: cell-based, human
# condition: t cells; 1,000 ng/ml; 0 ng/ml=22% of control; FIG. 20D; read-out: Cell viability, % of control
assay metric: viability (%)
Give bare numbers, in %.

Quick one: viability of C[C@]12CCC3=C(COC3=O)[C@@H]1CCC(=O)C2 (relative stereo) [Wilforonide] ?
35
